Assignment: determine reported abundance fitness for the given variants.
B1: Transcription factor SOX-4, residues 60 to 127; numbered along this chain, Q06945 (parent)
chain: KRPMNAFMVWSQIERRKIMEQSPDMHNAEISKRLGKRWKLLKDSDKIPFIREAERLRLKHMADYPDYK

# Variants of: B1
# ASSAY INFO: abundance fitness (aPCA) (normalised: wild type 0, dead -1); higher = more abundant; growth selection in yeast, the domain comes from the species named
# RUN CONDITIONS: Homo sapiens

Bench note: what abundance fitness did `L56E` show?
-0.201

Bench note: what abundance fitness did `M61P` show?
-0.202

Bench note: what abundance fitness did `S22F` show?
0.106

Bench note: what abundance fitness did `L58D` show?
-0.039

Bench note: what abundance fitness did `H60M` show?
-0.092

Bench note: what abundance fitness did `E52P` show?
-1.14

Bench note: what abundance fitness did `D43L` show?
-0.151

Bench note: what abundance fitness did `D45C` show?
-0.758

Bench note: what abundance fitness did `L40C` show?
-0.046

Bench note: what abundance fitness did `A62P` show?
-0.157

Bench note: what abundance fitness did `D43F` show?
-0.087
